Consider the following pIC50 data for Angiopoietin-1 receptor (Homo sapiens, UniProt Q02763), collected from several reports.
pIC50: −log10 of the molar value.

Some solved cases for reference:
- molecule: "Cc1nc(-c2cc(N)nc(N)c2)nn1CCN(C(=O)Cc1cccc2ccccc12)C1CCCC1"
  pIC50: "6.00 to 7.30"
- molecule: "CNc1nccc(COc2nsnc2N2CCN(C(=O)Nc3cc(C(F)(F)F)cc(C(F)(F)F)c3)CC2)n1"
  pIC50: "> 7.30"
- molecule: "COc1ccc(-c2cnn3c(N)c(-c4ccc(F)c(F)c4)c(C)nc23)cc1OC"
  pIC50: "< 5.00"

Note to self: pIC50 of `OCCOc1ccc(F)c(Cc2c[nH]c3ncc(-c4cccnc4)cc23)c1F` with Angiopoietin-1 receptor (Homo sapiens, UniProt Q02763) was ≥ 5.00

Note to self: pIC50 of `Cc1nc(-c2ccnc(N[C@@H]3CCNC3)c2)nn1CCN(C(=O)Cc1cccc2ccccc12)C1CCCC1` with Angiopoietin-1 receptor (Homo sapiens, UniProt Q02763) was 6.00 to 7.30

Note to self: pIC50 of `COc1cc(Nc2ncnc(Nc3ccc(-c4ccccc4)cc3)n2)cc(OC)c1OC` with Angiopoietin-1 receptor (Homo sapiens, UniProt Q02763) was < 4.98

Note to self: pIC50 of `CCc1ccccc1NC(=O)N(CCn1nc(-c2ccncc2)nc1-c1ccc(OC)c(Cl)c1)C1CCCC1` with Angiopoietin-1 receptor (Homo sapiens, UniProt Q02763) was 5.00 to 6.00

Note to self: pIC50 of `CCc1ccc(F)c(NC(=O)N2CCN(c3ncccc3OCc3ccnc(N)n3)CC2)c1` with Angiopoietin-1 receptor (Homo sapiens, UniProt Q02763) was > 7.30
